- testDetails: Study A: single oral dose pharmacokinetics in healthy subjects
- Assay type: in vivo, human
- conditionDetails: human, plasma; single oral dose 80 mg, fasted, mean ± SD
measurementLabel: Cmax (ng/mL)
Answers are plain numbers, in ng/mL.

Input: Tell me the measured Cmax of COc1ccccc1[C@H](Cn1c(=O)n(C(C)(C)C(=O)O)c(=O)c2c(C)c(-c3ncco3)sc21)OC1CCOCC1 , please.
Output: 101

* * *

- testDetails: Study A: single oral dose pharmacokinetics in healthy subjects
- Format: in vivo, human
- conditionDetails: human, plasma; single oral dose 30 mg, fasted, mean ± SD
measurementLabel: half-life (h)
Give bare numbers, in h.

Input: Tell me the measured half-life of COc1ccccc1[C@H](Cn1c(=O)n(C(C)(C)C(=O)O)c(=O)c2c(C)c(-c3ncco3)sc21)OC1CCOCC1 [Compound 1] , please.
Output: 4.5

* * *

- testDetails: Study A: single oral dose pharmacokinetics in healthy subjects
- Type: in vivo, human
- conditionDetails: human, plasma; single oral dose 200 mg, fasted, mean ± SD
measurementLabel: half-life
Write the numeric value and append its unit.

Input: Tell me the measured half-life of COc1ccccc1[C@H](Cn1c(=O)n(C(C)(C)C(=O)O)c(=O)c2c(C)c(-c3ncco3)sc21)OC1CCOCC1 , please.
Output: 12 h

* * *

- testDetails: Study A: single oral dose pharmacokinetics in healthy subjects
- Type: in vivo, human
- conditionDetails: human, plasma; single oral dose 30 mg, fasted, mean ± SD
measurementLabel: AUC(0-inf)
Write the numeric value and append its unit.

Input: Tell me the measured AUC(0-inf) of COc1ccccc1[C@H](Cn1c(=O)n(C(C)(C)C(=O)O)c(=O)c2c(C)c(-c3ncco3)sc21)OC1CCOCC1 , please.
Output: 179 ng·h/mL

* * *

- testDetails: Study B: multiple oral dose pharmacokinetics, 10 days
- Format: in vivo, human
- conditionDetails: human, in vivo, oral, 100 mg, 100 mg BID, Day 10; read-out: AUC0-t
measurementLabel: AUC(0-t) (ng·h/mL)
Give bare numbers, in ng·h/mL.

Input: Tell me the measured AUC(0-t) of COc1ccccc1[C@H](Cn1c(=O)n(C(C)(C)C(=O)O)c(=O)c2c(C)c(-c3ncco3)sc21)OC1CCOCC1 , please.
Output: 1120

* * *

- testDetails: Study A: single oral dose pharmacokinetics in healthy subjects
- Format: in vivo, human
- conditionDetails: human, plasma; single oral dose 1000 mg, fasted, mean ± SD
measurementLabel: half-life
Write the numeric value and append its unit.

Input: Tell me the measured half-life of COc1ccccc1[C@H](Cn1c(=O)n(C(C)(C)C(=O)O)c(=O)c2c(C)c(-c3ncco3)sc21)OC1CCOCC1 , please.
Output: 9.5 h

* * *

- testDetails: Study B: multiple oral dose pharmacokinetics, 10 days
- Type: in vivo, human
- conditionDetails: human, in vivo, oral, 150 mg, 150 mg QD, Day 10
measurementLabel: half-life (h)
One number for each entry, in h.

Input: Tell me the measured half-life of COc1ccccc1[C@H](Cn1c(=O)n(C(C)(C)C(=O)O)c(=O)c2c(C)c(-c3ncco3)sc21)OC1CCOCC1 , please.
Output: 6.6

* * *

- testDetails: Study B: multiple oral dose pharmacokinetics, 10 days
- Format: in vivo, human
- conditionDetails: human, in vivo, oral, 100 mg, 100 mg QD, Day 1
measurementLabel: Cmax (ng/mL)
Answers are plain numbers, in ng/mL.

Input: Tell me the measured Cmax of COc1ccccc1[C@H](Cn1c(=O)n(C(C)(C)C(=O)O)c(=O)c2c(C)c(-c3ncco3)sc21)OC1CCOCC1 , please.
Output: 65
